// data source = patent US20140221623A1

- target-desc: T1, Human soluble IL6-R (human, UniProt P08887 20-358)
- T1 construct: Bought soluble receptor; biotinylated in some Alphascreen assays; also called sIL6-R; hIL-6R
- T1 sequence (looked up): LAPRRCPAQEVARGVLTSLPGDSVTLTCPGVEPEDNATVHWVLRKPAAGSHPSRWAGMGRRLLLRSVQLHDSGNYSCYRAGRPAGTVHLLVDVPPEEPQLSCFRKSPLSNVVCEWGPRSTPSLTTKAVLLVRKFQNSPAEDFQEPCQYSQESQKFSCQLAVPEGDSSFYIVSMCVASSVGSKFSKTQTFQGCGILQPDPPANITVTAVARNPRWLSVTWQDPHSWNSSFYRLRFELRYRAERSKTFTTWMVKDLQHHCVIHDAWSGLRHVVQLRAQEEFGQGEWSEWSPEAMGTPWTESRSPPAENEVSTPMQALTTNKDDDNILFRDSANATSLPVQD
- test-details: SPR (Biacore 3000), IL6-R on CM5 chip
pKd: −log10 of the molar value.
readout: pKd

In the examples that follow, each entry is paired with its recorded pKd.
{"columns": ["binder", "pKd"],
 "data": [
  ["IL6R02 (VHH, also called PMP30C11; PMP 30 C11) VHH: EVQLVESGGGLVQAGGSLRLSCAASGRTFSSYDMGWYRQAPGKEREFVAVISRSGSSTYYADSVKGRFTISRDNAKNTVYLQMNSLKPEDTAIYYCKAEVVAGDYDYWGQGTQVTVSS", 8.23],
  ["IL6R12 (VHH, also called PMP35F4; PMP 35 F4) VHH: EVQLVESGGGLVQAGGSLRLSCAASGRTFSSYDMGWYRQAPGKEREFVAIITWNSSTYYADSVKGRFTISRDNAKNTVYLQMNSLKPEDTAIYYCNAQYGLGYAEDYWGQGTQVTVSS", 8.77],
  ["Reference Fab (Fab, V domains shown, Anti-human IL-6R Fab according to EP 0 628 639, made in E. coli periplasm; also called Tocilizumab-Fab) VH: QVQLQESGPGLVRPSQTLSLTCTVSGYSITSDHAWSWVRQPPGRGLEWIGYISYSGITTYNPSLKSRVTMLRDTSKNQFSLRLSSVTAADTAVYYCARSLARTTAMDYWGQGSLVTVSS VL: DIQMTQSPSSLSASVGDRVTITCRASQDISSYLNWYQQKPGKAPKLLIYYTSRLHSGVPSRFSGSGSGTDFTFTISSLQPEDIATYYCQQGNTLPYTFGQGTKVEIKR", 9.07]
]}

A. IL6R14 (VHH, also called PMP40H5; PMP 40 H5) VHH: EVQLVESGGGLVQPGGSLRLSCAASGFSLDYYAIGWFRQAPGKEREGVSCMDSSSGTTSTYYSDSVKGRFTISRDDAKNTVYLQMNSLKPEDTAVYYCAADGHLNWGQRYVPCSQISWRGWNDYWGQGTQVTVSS
B. IL6R03 (VHH, also called PMP31A4; PMP 31 A4) VHH: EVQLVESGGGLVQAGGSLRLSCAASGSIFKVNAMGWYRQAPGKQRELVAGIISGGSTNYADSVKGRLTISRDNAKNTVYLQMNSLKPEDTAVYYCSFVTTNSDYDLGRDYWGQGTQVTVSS
In: // compare: A vs B , metric pKd, want the smaller Refer to your chosen entry by its label in the reply.
Out: B
(B: 8.52, A: 9.60)
